These data points were gathered from patent US20050101595A1.

# Tested on: HCT-116 cell line
# TEST_NAME: Inhibition of cell growth, tetrazolium salt (MTT) assay
# Type: cell-based
# CONDITION_DETAILS: Homo sapiens, HCT-116, 120 h, first HCT-116 column (c4); MTT, three to five days; read-out: HCT-116 IC50
Counter-ions that a name gives are not always drawn.
Listed below: IC50 values for each entry.
Numbers only here, please. The scale is nM.

Reference set (10 entries):
{"columns": ["COMPOUND", "RESULT_UNIT", "IC50"],
 "data": [
  ["CN1CCN(c2ncc(S(=O)(=O)N3CCC(Nc4nc(N)c(C(=O)c5c(F)cccc5F)s4)CC3)cn2)CC1 [Example G34, Hydrochloride Salt]", "nM", 40],
  ["Nc1nc(NC2CCN(S(=O)(=O)c3ccc(-c4cccnc4)cc3)CC2)sc1C(=O)c1c(F)cccc1F [Example I8, Trifluoroacetic Acid Salt]", "nM", 71],
  ["Cn1cncc1-c1ccc(S(=O)(=O)N2CCC(Nc3nc(N)c(C(=O)c4c(F)cccc4F)s3)CC2)cc1 [Example F32, Trifluoroacetic Acid Salt]", "nM", 110],
  ["CN(C)CCc1ncc(S(=O)(=O)N2CCC(Nc3nc(N)c(C(=O)c4c(F)cccc4F)s3)CC2)cn1 [Example N12, Hydrochloride Salt]", "nM", 67],
  ["CN1CCCC1CCSc1ccc(S(=O)(=O)N2CCC(Nc3nc(N)c(C(=O)c4c(F)cccc4F)s3)CC2)cn1 (centres unmarked) [Example L6, Dihydrochloride]", "nM", 75],
  ["CN1CCCC1c1ccc(S(=O)(=O)N2CCC(Nc3nc(N)c(C(=O)c4c(F)cccc4F)s3)CC2)cc1 (centres unmarked) [Example F24, Dihydrochloride]", "nM", 590],
  ["Nc1nc(NC2CCN(C(=O)c3ccc(I)cc3)CC2)sc1C(=O)c1c(F)cccc1F", "nM", 1200],
  ["CN1CCC[C@H](COc2ccc(S(=O)(=O)N3CCC(Nc4nc(N)c(C(=O)c5c(F)cccc5F)s4)CC3)cn2)C1 [Example H11, Dihydrochloride]", "nM", 42],
  ["CC1CCCC(NCCS(=O)(=O)N2CCC(Nc3nc(N)c(C(=O)c4c(F)cccc4F)s3)CC2)C1 (mixture of isomers)", "nM", 51],
  ["Nc1nc(NC2CCN(S(=O)(=O)c3ccc(-c4c[nH]cn4)cc3)CC2)sc1C(=O)c1c(F)cccc1F [Example F30, Trifluoroacetic Acid Salt]", "nM", 170]
]}

Q: For the compound shown here, CN1CCN(Cc2ccc(S(=O)(=O)N3CCC(Nc4nc(N)c(C(=O)c5c(F)cccc5F)s4)CC3)cc2)CC1 [Example J7, Hydrochloride Salt] , give the reported IC50.
Ans: 130

Q: # lookup: IC50 of C[C@@H]1CN(c2ccc(S(=O)(=O)N3CCC(Nc4nc(N)c(C(=O)c5c(F)cccc5F)s4)CC3)cn2)C[C@H](C)N1 [Example G15, Trifluoroacetic Acid Salt]
Ans: 79

Q: Could you tell me which IC50 is on file for CC(=O)/C=C/C(=O)N1CCC(Nc2nc(N)c(C(=O)c3c(F)cccc3F)s2)CC1 ?
Ans: 82

Q: Form field: reported IC50 of CC1(C)CCCN(CCCS(=O)(=O)N2CCC(Nc3nc(N)c(C(=O)c4c(F)cccc4F)s3)CC2)C1
Ans: 120

Q: For the compound shown here, Nc1nc(NC2CCN(S(=O)(=O)c3ccc(N4CCC[C@H]4CO)nc3)CC2)sc1C(=O)c1c(F)cccc1F [Example G14, Trifluoroacetic Acid Salt] , give the reported IC50.
Ans: 140

###

# SUBJECT_OF_TEST: CDK2/Cyclin A (Homo sapiens)
# TEST_NAME: Inhibition of CDK2/Cyclin A Retinoblastoma Kinase Activity
# Assay type: biochemical
# CONDITION_DETAILS: read-out: % inhibition of CDK2 (@ 0.05 μM), compound at 0.05 μM
# Description: Cyclin-dependent kinase activity was measured by quantifying the enzyme-catalyzed, time-dependent incorporation of radioactive phosphate from [^32P]ATP or [^33P]ATP into a protein substrate. […] The phosphorylated substrate was then captured on a nitrocellulose or phosphocellulose membrane using a 96-well filtration manifold, and unincorporated radioactivity was removed by repeated washing with 0.85% phosphoric acid. Radioactivity was quantified by exposing the dried membranes to a phosphorimager. […]
ATTRIBUTE_MEASURED: inhibition at 0.05 µM (%)
Numbers only here, please. The scale is %.

{"columns": ["SMILES_TEXT", "SUBJECT_OF_TEST", "ATTRIBUTE_MEASURED", "RESULT_UNIT", "NUMBER"],
 "data": [
  ["CN(C)CCCN(C)CCCS(=O)(=O)N1CCC(Nc2nc(N)c(C(=O)c3c(F)cccc3F)s2)CC1", "CDK2/Cyclin A (Homo sapiens)", "inhibition at 0.05 µM", "%", 78],
  ["CCCN(CCCS(=O)(=O)N1CCC(Nc2nc(N)c(C(=O)c3c(F)cccc3F)s2)CC1)CC1CC1", "CDK2/Cyclin A (Homo sapiens)", "inhibition at 0.05 µM", "%", 81]
]}

Q: Given Nc1nc(NC2CCN(S(=O)(=O)CCCNCCCN3CCCC3)CC2)sc1C(=O)c1c(F)cccc1F , state its recorded inhibition at 0.05 µM.
Ans: 82

###

Recorded pKi, one value per entry.
# SUBJECT_OF_TEST: human CDK4 and genetically truncated (1-264) cyclin D3 (Homo sapiens, UniProt P11802)
# Sequence (P11802 whole entry, the tested form may be a part): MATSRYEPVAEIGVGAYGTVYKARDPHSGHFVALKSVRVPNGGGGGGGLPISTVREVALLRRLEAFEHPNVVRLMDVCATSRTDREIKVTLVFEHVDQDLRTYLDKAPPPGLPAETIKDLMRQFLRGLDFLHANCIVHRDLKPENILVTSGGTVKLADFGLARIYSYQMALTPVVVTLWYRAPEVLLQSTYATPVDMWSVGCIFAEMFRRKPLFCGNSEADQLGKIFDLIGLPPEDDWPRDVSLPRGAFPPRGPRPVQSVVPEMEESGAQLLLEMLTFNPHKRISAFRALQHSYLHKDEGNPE
# Sequence (P30281 1-264 partner): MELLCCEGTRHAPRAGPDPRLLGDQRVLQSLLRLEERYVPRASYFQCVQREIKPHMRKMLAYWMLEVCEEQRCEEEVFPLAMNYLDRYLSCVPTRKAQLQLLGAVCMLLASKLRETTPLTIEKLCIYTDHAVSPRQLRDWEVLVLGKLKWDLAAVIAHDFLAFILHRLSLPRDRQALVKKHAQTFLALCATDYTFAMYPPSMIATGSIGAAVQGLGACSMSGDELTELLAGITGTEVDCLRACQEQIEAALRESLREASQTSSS
# TEST_NAME: Inhibition of CDK4/Cyclin D Retinoblastoma Kinase Activity
# CONDITION_DETAILS: apparent Ki, CDK4/truncated cyclin D3, Rb fragment substrate, 25 μM ATP
Where a name gives a salt, the structure may show the parent alone.
Scale note: pKi = -log10(concentration in M).

Worked set:
{"columns": ["COMPOUND", "SUBJECT_OF_TEST", "ATTRIBUTE_MEASURED", "NUMBER"],
 "data": [
  ["Nc1nc(NC2CCN(S(=O)(=O)c3ccc(OCCn4ccnc4)nc3)CC2)sc1C(=O)c1c(F)cccc1F [Example H9, Hydrochloride]", "human CDK4 and genetically truncated (1-264) cyclin D3 (Homo sapiens, UniProt P11802)", "pKi", 8.92],
  ["Nc1nc(NC2CCN(C(=O)c3c[nH]cn3)CC2)sc1C(=O)c1c(F)cccc1F", "human CDK4 and genetically truncated (1-264) cyclin D3 (Homo sapiens, UniProt P11802)", "pKi", 7.18]
]}

Consider now this further compound.
Q: Which measured pKi value corresponds to CS(=O)(=O)c1ccc(S(=O)(=O)N2CCC(Nc3nc(N)c(C(=O)c4c(F)cccc4F)s3)CC2)cc1 ?
Ans: 8.89

###

# SUBJECT_OF_TEST: human CDK4 and genetically truncated (1-264) cyclin D3 (Homo sapiens, UniProt P11802)
# TEST_NAME: Inhibition of CDK4/Cyclin D Retinoblastoma Kinase Activity
# Assay type: biochemical
# CONDITION_DETAILS: apparent Ki, CDK4/truncated cyclin D3, Rb fragment substrate, 25 μM ATP
Structures can show the parent of a compound that is named as a salt.
Listed below: pKi values for each entry.
To interpret pKi, take it as minus log10 of a concentration measured in moles per litre.

{"columns": ["COMPOUND", "NUMBER"],
 "data": [
  ["CN1CCCC1CCSc1ccc(S(=O)(=O)N2CCC(Nc3nc(N)c(C(=O)c4c(F)cccc4F)s3)CC2)cn1 (stereo not shown) [Example L6, Dihydrochloride]", 9.02],
  ["CN(C)CCN(C)c1ccc(S(=O)(=O)N2CCC(Nc3nc(N)c(C(=O)c4c(F)cccc4F)s3)CC2)cn1 [Example G1, Trifluoroacetic Acid Salt]", 9.19],
  ["Nc1nc(NC2CCN(S(=O)(=O)c3cccs3)CC2)sc1C(=O)c1c(F)cccc1F", 8.26],
  ["Nc1nc(NC2CCN(S(=O)(=O)c3ccc(Cl)nc3)CC2)sc1C(=O)c1c(F)cccc1F", 8.60]
]}

Q: Would you mind telling me what pKi value was observed for Nc1nc(NC2CCN(S(=O)(=O)c3ccc(C4=NCCO4)cc3)CC2)sc1C(=O)c1c(F)cccc1F ?
Ans: 8.41

Q: Looking for the measured pKi of Nc1nc(NC2CCN(S(=O)(=O)CCCc3nnn[nH]3)CC2)sc1C(=O)c1c(F)cccc1F , can you help?
Ans: 7.74

Q: Please report the recorded pKi for CN(C)CCOc1ncc(S(=O)(=O)N2CCC(Nc3nc(N)c(C(=O)c4c(F)cccc4F)s3)CC2)cn1 [Example H24, Trifluoroacetic Acid Salt] .
Ans: 9.39

Q: Return reported pKi; argument: CC[C@@H](NCCS(=O)(=O)N1CCC(Nc2nc(N)c(C(=O)c3c(F)cccc3F)s2)CC1)c1ccccc1
Ans: 8.68

Q: Tell me the measured pKi of Nc1nc(NC2CCN(S(=O)(=O)c3ccc(CCN4CCC[C@H]4CO)nc3)CC2)sc1C(=O)c1c(F)cccc1F [Example N9, Hydrochloride Salt] , please.
Ans: 9.59

Q: Item Nc1nc(NC2CCN(S(=O)(=O)c3cnc(OCCN4CCCCC4)nc3)CC2)sc1C(=O)c1c(F)cccc1F [Example H23, Trifluoroacetic Acid Salt] has what recorded pKi?
Ans: 9.28

Q: Which value of pKi has been reported for Nc1nc(NC2CCN(S(=O)(=O)c3ccc(OCCN4CCCC4)nc3)CC2)sc1C(=O)c1c(F)cccc1F [Example H5, Trifluoroacetic Acid Salt] in the records?
Ans: 9.41

Q: Query: pKi; subject: CC(=O)/C=C/C(=O)N1CCC(Nc2nc(N)c(C(=O)c3c(F)cccc3F)s2)CC1
Ans: 6.85

Q: Value lookup for pKi; key = Nc1nc(NC2CCN(S(=O)(=O)c3cnc(OCCN4CCOCC4)nc3)CC2)sc1C(=O)c1c(F)cccc1F [Example H22, Trifluoroacetic Acid Salt]
Ans: 8.96
